Data origin, for the record: patent US11279730B2

Biological target: GluN2B glutamate receptors (Homo sapiens, UniProt Q05586+Q13224)
Construct: expressed in transfected cells
Sequence (Q13224 27-1484, other chains not shown): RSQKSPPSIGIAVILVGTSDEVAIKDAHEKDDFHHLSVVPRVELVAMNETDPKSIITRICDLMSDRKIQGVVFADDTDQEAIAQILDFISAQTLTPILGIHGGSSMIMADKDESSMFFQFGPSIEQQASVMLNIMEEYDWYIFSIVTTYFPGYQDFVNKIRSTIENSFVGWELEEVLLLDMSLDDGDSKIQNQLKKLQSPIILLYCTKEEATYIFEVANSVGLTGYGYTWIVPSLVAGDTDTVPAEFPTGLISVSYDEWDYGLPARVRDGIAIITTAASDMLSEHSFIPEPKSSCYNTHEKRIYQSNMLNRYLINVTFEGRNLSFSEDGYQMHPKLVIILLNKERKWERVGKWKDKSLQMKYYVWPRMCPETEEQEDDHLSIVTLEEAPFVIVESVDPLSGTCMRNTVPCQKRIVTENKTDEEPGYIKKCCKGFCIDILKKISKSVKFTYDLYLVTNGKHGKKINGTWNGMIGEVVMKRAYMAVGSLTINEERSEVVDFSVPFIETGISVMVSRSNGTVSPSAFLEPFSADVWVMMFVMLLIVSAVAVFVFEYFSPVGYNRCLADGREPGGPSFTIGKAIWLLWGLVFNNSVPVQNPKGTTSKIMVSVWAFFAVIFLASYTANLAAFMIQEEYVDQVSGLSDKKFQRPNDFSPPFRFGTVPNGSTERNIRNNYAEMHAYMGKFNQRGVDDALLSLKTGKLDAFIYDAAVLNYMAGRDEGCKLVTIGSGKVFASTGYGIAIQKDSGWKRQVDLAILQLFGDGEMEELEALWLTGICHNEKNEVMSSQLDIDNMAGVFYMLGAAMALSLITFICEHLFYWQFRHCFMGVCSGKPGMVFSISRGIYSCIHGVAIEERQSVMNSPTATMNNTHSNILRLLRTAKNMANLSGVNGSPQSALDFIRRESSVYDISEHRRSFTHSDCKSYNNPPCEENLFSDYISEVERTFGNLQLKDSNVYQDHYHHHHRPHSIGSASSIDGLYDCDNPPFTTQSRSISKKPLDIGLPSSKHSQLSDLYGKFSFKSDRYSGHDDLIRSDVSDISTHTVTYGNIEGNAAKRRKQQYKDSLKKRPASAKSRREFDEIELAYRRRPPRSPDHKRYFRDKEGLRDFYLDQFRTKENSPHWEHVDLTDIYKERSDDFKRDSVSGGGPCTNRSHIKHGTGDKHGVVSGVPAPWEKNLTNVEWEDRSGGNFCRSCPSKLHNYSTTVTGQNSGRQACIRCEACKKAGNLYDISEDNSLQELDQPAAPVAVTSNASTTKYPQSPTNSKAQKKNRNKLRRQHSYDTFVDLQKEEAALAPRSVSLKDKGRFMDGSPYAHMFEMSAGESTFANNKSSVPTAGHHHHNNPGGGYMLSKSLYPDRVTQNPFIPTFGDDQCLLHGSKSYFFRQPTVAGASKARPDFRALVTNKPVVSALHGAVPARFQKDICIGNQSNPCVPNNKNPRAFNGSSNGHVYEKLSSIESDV
Experiment: Whole-cell patch clamp of mammalian cells (Ionworks Barracuda, IWB), NMDA potentiation (PAM), GluN2B
Format: cell-based
Conditions: peak current amplitude; maximal potentiation; read-out: GluN2B PCA Emax (%)
For each entry below, report its Emax value.

Req: Look up Emax for this compound: C[C@H](CCC(C)(C)O)[C@H]1CC[C@H]2[C@@H]3CC=C4C[C@@](C)(O)CC[C@]4(C)[C@H]3C(C)(O)C[C@]12C (stereo partly drawn)
Resp: 100 to 500%

Req: Look up Emax for this compound: "CC[C@]1(O)CC[C@@]2(C)C(=CC[C@H]3[C@@H]4CC[C@H]([C@H](C)CC[C@H](O)C(C)C)[C@@]4(C)CC(=O)[C@@H]32)C1"
Resp: 100 to 500%

Req: Look up Emax for this compound: "CC[C@]1(O)CC[C@@]2(C)C(=CC[C@H]3[C@@H]4CC[C@H]([C@H](C)CC[C@@H](O)C(C)(C)C)[C@@]4(C)CC(=O)[C@@H]32)C1"
Resp: 100 to 500%

Req: Look up Emax for this compound: "C[C@H](CCC(C)(C)O)[C@H]1CC[C@H]2[C@@H]3CC=C4C[C@@H](O)CC[C@]4(C)[C@H]3[C@@H](O)C[C@]12C"
Resp: 100 to 500%

Req: Look up Emax for this compound: "CC[C@]1(O)CC[C@@]2(C)C(=CC[C@H]3[C@@H]4CC[C@H]([C@H](C)CC[C@@H](O)C(C)C)[C@@]4(C)CC(=O)[C@@H]32)C1"
Resp: 100 to 500%

Req: Look up Emax for this compound: "CC[C@]1(O)CC[C@@]2(C)C(=CC[C@H]3[C@@H]4CC[C@H]([C@H](C)CC[C@H](O)C(C)(C)C)[C@@]4(C)CC(=O)[C@@H]32)C1"
Resp: 100 to 500%
